tested-target: GOPC, Q9HD26
protocol-text: holdup assay
Set-up: key: below the threshold = too weak to quantify, mostly under pKd 3.1 to 4
condition-notes: plain residues with an end cap or a label only (N-terminal biotin on a linker: ttds)
endpoint: pKd
Number, no unit, nothing else.

FVETQHQTQV [FAT3, Q8TDW7]
3.76
SSIDLWETAL [SLC15A5, A6NIM6]
4.85
NPDALPETLV [ARHGAP6, O43182]
4.14

Consider the binder KQVVPFSSSV [GDA, Q9Y2T3] and give its measured pKd. 3.65

One more binder: PPRQRSETQV [HPV82-E6, Q9IR59] 3.63

How about PSRDRKETSI [RALBP1, Q15311] ? 3.6

Check SRSRRRETAL [HPV33-E6, P06427] too. 3.97

Now consider KLVIKTETTV [RASSF6, Q6ZTQ3] . 3.53

Please do the same for SGGKRKETLV [NET1, Q7Z628] as well. 3.82
